Assay Endpoint: melting point

// below: answered molecules
> print(dat)
                           input.smiles         result
1  CCCCn1cc2c(=O)n(Cc3c(F)cccc3F)cnc2n1  151 to 152 °C
2  CCCn1cc2c(=O)n(Cc3c(F)cccc3Cl)cnc2n1  163 to 165 °C
3    CCCn1cc2c(=O)n(Cc3ccc(C)cc3)cnc2n1  157 to 158 °C

State the recorded melting point for every item in the following list.
1. Cc1ccccc1Cn1cnc2nn(C)cc2c1=O
2. COc1ccccc1Cn1cnc2nn(C)cc2c1=O
3. Cc1ccc(Cn2cnc3nn(Cc4ccccc4)cc3c2=O)cc1
4. Cn1cc2c(=O)n(Cc3ccccc3C(F)(F)F)cnc2n1
5. CC(C)n1cc2c(=O)n(Cc3ccccn3)cnc2n1

Output:
1: 185 to 186 °C; 2: 160 to 162 °C; 3: 167 to 169 °C; 4: 215 to 217 °C; 5: 163 to 164 °C

State the recorded melting point for every item in the following list.
1. O=c1c2cn(-c3ccccc3)nc2ncn1Cc1ccccn1
2. Cc1cc(C)c(Cn2cnc3nn(C)cc3c2=O)c(C)c1
3. O=c1c2cn(Cc3ccccc3)nc2ncn1Cc1ccccn1

Output:
199 to 201 °C
182 to 184 °C
182 to 184 °C

State the recorded melting point for every item in the following list.
1. Cn1cc2c(=O)n(Cc3ccccc3I)cnc2n1
2. Cn1cc2c(=O)n(Cc3ccccc3C#N)cnc2n1
3. CCn1cc2c(=O)n(Cc3ccc(C)cc3)cnc2n1
4. O=c1c2cn(Cc3ccccc3)nc2ncn1Cc1c(F)cccc1F
5. O=c1c2c[nH]nc2ncn1Cc1cccnc1

Output:
1. 187 to 190 °C
2. 198 to 199 °C
3. 178 to 179 °C
4. 173 to 174 °C
5. 200 to 201 °C

State the recorded melting point for every item in the following list.
1. Cn1cc2c(=O)n(Cc3ccncc3)cnc2n1
2. O=c1c2cn(Cc3ccccn3)nc2ncn1Cc1c(F)cccc1F
3. Cn1cc2c(=O)n(Cc3ccccc3Cl)cnc2n1
4. Cc1cccc(Cn2cnc3nn(C)cc3c2=O)c1
5. O=c1c2c[nH]nc2ncn1Cc1ccc(Cl)cc1Cl

Output:
1. 192 to 195 °C
2. 174 to 175 °C
3. 205 to 206 °C
4. 114 to 117 °C
5. 236 to 237 °C
